biological target: tubulin; construct: tubulin isolated from goat brain (alpha-beta dimer); with alpha-tubulin/beta-tubulin heterodimer; assay: intrinsic tryptophan fluorescence quenching of purified tubulin; supported by reduced DTNB cysteine modification

STRUCTURE_AS_SMILES | Kd (nM)
COc1cc2cc(c1Cl)N(C)C(=O)C[C@H](OC(=O)C(C)C)[C@]1(C)O[C@H]1[C@H](C)[C@@H]1C[C@@](O)(NC(=O)O1)[C@H](OC)/C=C/C=C(\C)C2 | 1300

Where do these numbers come from? They come from paper PMC3790769.
